Assay: total protein half-life in vivo (active degradation + dilution); higher = more stable protein
Conditions: E. coli NCM3722 delta-smpB; growth: N-lim chemostat; doubling time 6 h
measured-attribute: total protein half-life in vivo (h)
Record the value in h, omitting the unit from your answer.

>  <sequence>
MKKFAAVIAVMALCSAPVMAAEQGGFSGPSATQSQAGGFQGPNGSVTTVESAKSLRDDTWVTLRGNIVERISDDLYVFKDASGTINVDIDHKRWNGVTVTPKDTVEIQGEVDKDWNSVEIDVKQIRKVNP [P0ADU5]

>  <readout-value>
5.91

$$$$

Read the next record carefully.
Data point: "MQDRNFDDIAEKFSRNIYGTTKGQLRQAILWQDLDRVLAEMGPQKLRVLDAGGGEGQTAIKMAERGHQVILCDLSAQMIDRAKQAAEAKGVSDNMQFIHCAAQDVASHLETPVDLILFHAVLEWVADPRSVLQTLWSVLRPGGVLSLMFYNAHGLLMHNMVAGNFDYVQAGMPKKKKRTLSPDYPRDPAQVYLWLEEAGWQIMGKTGVRVFHDYLREKHQQRDCYEALLELETRYCRQEPYITLGRYIHVTARKPQSKDKV" ; total protein half-life in vivo = 4.3

----------
Assay: total protein half-life in vivo (active degradation + dilution); higher = more stable protein
Settings: wild type E. coli NCM3722; growth: P-lim chemostat; doubling time 12 h
measured-attribute: total protein half-life in vivo (h)
# output: bare number, implied unit h

>  <sequence>
MEQLRAELSHLLGEKLSRIECVNEKADTALWALYDSQGNPMPLMARSFSTPGKARQLAWKTTMLARSGTVRMPTIYGVMTHEEHPGPDVLLLERMRGVSVEAPARTPERWEQLKDQIVEALLAWHRQDSRGCVGAVDNTQENFWPSWYRQHVEVLWTTLNQFNNTGLTMQDKRILFRTRECLPALFEGFNDNCVLIHGNFCLRSMLKDSRSDQLLAMVGPGLMLWAPREYELFRLMDNSLAEDLLWSYLQRAPVAESFIWRRWLYVLWDEVAQLVNTGRFSRRNFDLASKSLLPWLA [P0AB03]

>  <measured-attribute>
total protein half-life in vivo

>  <unit-spec>
h

>  <readout-value>
7.86

$$$$
>  <sequence>
MRNKPFYLLCAFLWLAVSHALAADSTITIRGYVRDNGCSVAAESTNFTVDLMENAAKQFNNIGATTPVVPFRILLSPCGNAVSAVKVGFTGVADSHNANLLALENTVSAASGLGIQLLNEQQNQIPLNAPSSALSWTTLTPGKPNTLNFYARLMATQVPVTAGHINATATFTLEYQ

>  <measured-attribute>
total protein half-life in vivo

>  <unit-spec>
h

>  <readout-value>
9.2

$$$$
>  <sequence>
MANRMILNETAWFGRGAVGALTDEVKRRGYQKALIVTDKTLVQCGVVAKVTDKMDAAGLAWAIYDGVVPNPTITVVKEGLGVFQNSGADYLIAIGGGSPQDTCKAIGIISNNPEFADVRSLEGLSPTNKPSVPILAIPTTAGTAAEVTINYVITDEEKRRKFVCVDPHDIPQVAFIDADMMDGMPPALKAATGVDALTHAIEGYITRGAWALTDALHIKAIEIIAGALRGSVAGDKDAGEEMALGQYVAGMGFSNVGLGLVHGMAHPLGAFYNTPHGVANAILLPHVMRYNADFTGEKYRDIARVMGVKVEGMSLEEARNAAVEAVFALNRDVGIPPHLRDVGVRKEDIPALAQAALDDVCTGGNPREATLEDIVELYHTAW [P0A9S1]

>  <measured-attribute>
total protein half-life in vivo

>  <unit-spec>
h

>  <readout-value>
10.2

$$$$
>  <sequence>
MLIIETLPLLRQQIRRLRMEGKRVALVPTMGNLHDGHMKLVDEAKARADVVVVSIFVNPMQFDRPEDLARYPRTLQEDCEKLNKRKVDLVFAPSVKEIYPNGTETHTYVDVPGLSTMLEGASRPGHFRGVSTIVSKLFNLVQPDIACFGEKDFQQLALIRKMVADMGFDIEIVGVPIMRAKDGLALSSRNGYLTAEQRKIAPGLYKVLSSIADKLQAGERDLDEIITIAGQELNEKGFRADDIQIRDADTLLEVSETSKRAVILVAAWLGDARLIDNKMVELA

>  <measured-attribute>
total protein half-life in vivo

>  <unit-spec>
h

>  <readout-value>
12.5

$$$$
>  <sequence>
MTQPMPGKPAEDAENELDIRGLFRTLWAGKLWIIGMGLAFALIALAYTFFARQEWSSTAITDRPTVNMLGGYYSQQQFLRNLDVRSNMASADQPSVMDEAYKEFVMQLASWDTRREFWLQTDYYKQRMVGNSKADAALLDEMINNIQFIPGDFTRAVNDSVKLIAETAPDANNLLRQYVAFASQRAASHLNDELKGAWAARTIQMKAQVKRQEEVAKAIYDRRMNSIEQALKIAEQHNISRSATDVPAEELPDSEMFLLGRPMLQARLENLQAVGPAFDLDYDQNRAMLNTLNVGPTLDPRFQTYRYLRTPEEPVKRDSPRRAFLMIMWGIVGGLIGAGVALTRRCSK [P0AG00]

>  <measured-attribute>
total protein half-life in vivo

>  <unit-spec>
h

>  <readout-value>
13.3

$$$$

From here, focus on the item given below.
Looking up "MPLSAQQLAAQKNLSYVLAEKLAQRILKGEYEPGTILPGEIELGEQFGVSRTAVREAVKTLTAKGMVLPRPRIGTRVMPQSNWNFLDQELLTWWMTEENFHQVIDHFLVMRICLEPQACLLAATVGTAEQKAHLNTLMAEMAALKENFRRERWIEVDMAWHEHIYEMSANPFLTSFASLFHSVYHTYFTSITSDTVIKLDLHQAIVDAIIQSDGDAAFKACQALLRSPDK" , I see its total protein half-life in vivo listed as 11.4

----------
total protein half-life in vivo overview
Assay: total protein half-life in vivo (active degradation + dilution); higher = more stable protein
Conditions: wild type E. coli NCM3722; growth: C-lim chemostat; doubling time 12 h
Just the number please, in h, no unit attached.

>  <sequence>
MLSNDILRSVRYILKANNNDLVRILALGNVEATAEQIAVWLRKEDEEGFQRCPDIVLSSFLNGLIYEKRGKDESAPALEPERRINNNIVLKKLRIAFSLKTDDILAILTEQQFRVSMPEITAMMRAPDHKNFRECGDQFLRYFLRGLAARQHVKKG

>  <total protein half-life in vivo / h>
11.7

$$$$
>  <sequence>
MPVRAQRIQHVMQDTIINFYSTSDDYGDFSNFAAWPIKVDGKTWPTSEHYFQAQKFLDEKYREEIRRVSSPMVAARMGRDRSKPLRKNWESVKEQVMRKALRAKFEQHAELRALLLATAPAKLVEHTENDAYWGDGGHGKGKNRLGYLLMELREQLAIEK

>  <total protein half-life in vivo / h>
12.3

$$$$
>  <sequence>
MAINFSPKVGEILECNFGNYPVSQNGPFSTTYYDGRIPPEMIKNRLVVVLNGKINGNACIVVPLSTTRDQDKLKRGMHVEIASNVINDLQFFDQQIRWAKADLVQQVSRNRLNRARTYRGYLNQCLPHELVADIQRAVIKSINAISLIN

>  <total protein half-life in vivo / h>
8.7

$$$$

Now consider a different sequence.
total protein half-life in vivo recorded for this sequence, MSRPTIIINDLDAERIDILLEQPAYAGLPIADALNAELDRAQMCSPEEMPHDVVTMNSRVKFRNLSDGEVRVRTLVYPAKMTDSNTQLSVMAPVGAALLGLRVGDSIHWELPGGVATHLEVLELEYQPEAAGDYLL [P0AFW4] , is 2.08

----------
Assay: total protein half-life in vivo (active degradation + dilution); higher = more stable protein
Details: wild type E. coli NCM3722; growth: N-lim chemostat; doubling time 12 h
measured-attribute: total protein half-life in vivo (h)
Just the number in h, nothing appended.

Input "MKNKLPPFIEIYRALIATPSISATEEALDQSNADLITLLADWFKDLGFNVEVQPVPGTRNKFNMLASIGQGAGGLLLAGHTDTVPFDDGRWTRDPFTLTEHDGKLYGLGTADMKGFFAFILDALRDVDVTKLKKPLYILATADEETSMAGARYFAETTALRPDCAIIGEPTSLQPVRAHKGHISNAIRIQGQSGHSSDPARGVNAIELMHDAIGHILQLRDNLKERYHYEAFTVPYPTLNLGHIHGGDASNRICACCELHMDIRPLPGMTLNELNGLLNDALAPVSERWPGRLTVDELHPPIPGYECPPNHQLVEVVEKLLGAKTEVVNYCTEAPFIQTLCPTLVLGPGSINQAHQPDEYLETRFIKPTRELITQVIHHFCWH" . Output total protein half-life in vivo: 7.38
